system: HeLa; test: Antiproliferative activity against human HeLa cells assessed as reduction in cell viability incubated for 48 hrs by CCk-8 assay; assay type: functional, cell-based
reportedEndpoint: IC50

# example entries with known answers
smi	measuredOn	reportedEndpoint	result
C[C@H]1CCC/C=C/[C@@H]2C[C@H](OC(=O)CCCC(=O)OCCCCOc3ccc(-c4cc(=S)ss4)cc3)C[C@H]2[C@H](OC(=O)CCCC(=O)OCCCCOc2ccc(-c3cc(=S)ss3)cc2)/C=C/C(=O)O1	HeLa	IC50	> 40 µM
C[C@H]1CCC/C=C/[C@@H]2C[C@H](OC(=O)c3ccccc3C(=O)OCCCCCCOc3ccc(-c4cc(=S)ss4)cc3)C[C@H]2[C@H](OC(=O)c2ccccc2C(=O)OCCCCCCOc2ccc(-c3cc(=S)ss3)cc2)/C=C/C(=O)O1	HeLa	IC50	> 40 µM

Now for a further compound.
Ask: Look up and state reported IC50 for C[C@H]1CCC/C=C/[C@@H]2C[C@H](O)C[C@H]2[C@H](OC(=O)c2ccccc2C(=O)OCCCCCCOc2ccc(-c3cc(=S)ss3)cc2)/C=C/C(=O)O1
Reply: > 40 µM

====

system: A549; assay: Antiproliferative activity against human A549 cells assessed as reduction in cell viability incubated for 48 hrs by CCk-8 assay; format: functional, cell-based; conditions: A549, 48 h
reportedEndpoint: IC50 (nM)
Supply the numeric figure in nM, leaving out any unit text.

smi	measuredNumber
C[C@H]1CCC/C=C/[C@@H]2C[C@H](O)C[C@H]2[C@H](OC(=O)CCCC(=O)OCCOc2ccc(-c3cc(=S)ss3)cc2)/C=C/C(=O)O1	580

Ask: Look up and state reported IC50 for C[C@H]1CCC/C=C/[C@@H]2C[C@H](O)C[C@H]2[C@H](OC(=O)CCCC(=O)OCCCCCCOc2ccc(-c3cc(=S)ss3)cc2)/C=C/C(=O)O1
Reply: 670

====

tested on: A549; assay: Antiproliferative activity against human A549 cells assessed as reduction in cell viability incubated for 48 hrs by CCk-8 assay; format: functional, cell-based; conditions: A549, 48 h
The entries below are paired with their reported IC50.

# example entries with known answers
smi	result
C[C@H]1CCC/C=C/[C@@H]2C[C@H](OC(=O)CCCC(=O)OCCOc3ccc(-c4cc(=S)ss4)cc3)C[C@H]2[C@H](OC(=O)CCCC(=O)OCCOc2ccc(-c3cc(=S)ss3)cc2)/C=C/C(=O)O1	> 40 µM
C[C@H]1CCC/C=C/[C@@H]2C[C@H](OC(=O)CCCC(=O)Oc3ccc(-c4cc(=S)ss4)cc3)C[C@H]2[C@H](OC(=O)CCCC(=O)Oc2ccc(-c3cc(=S)ss3)cc2)/C=C/C(=O)O1	> 40 µM

Ask: Look up and state reported IC50 for C[C@H]1CCC/C=C/[C@@H]2C[C@H](OC(=O)CCC(=O)OCCOc3ccc(-c4cc(=S)ss4)cc3)C[C@H]2[C@H](OC(=O)CCC(=O)OCCOc2ccc(-c3cc(=S)ss3)cc2)/C=C/C(=O)O1
Reply: > 40 µM
